measurementProtocol: Test Example 4: sensory evaluation of lemon-derived degradation odor-masking effect (single compounds)
Assay type: in vivo
conditionSummary: score 0 to 10 (0 normal sample, 5 normal:degraded 1:1, 10 degraded sample); lemon beverage stored at 44° C. for 2 weeks; added ppm: decadienal 0.002, nonadienal 0.002, 2-methylbenzenethiol 0.165, S-(2-methyl-3-furyl) ethanethioate 0.120, piperine 6.667, nootkatone 10.000, sclareol 16.667; average of 2 experts
measuredAttribute: Evaluation score (lemon-derived degradation odor intensity)

{"columns": ["compound", "measuredValue"],
 "data": [
  ["O=C(/C=C/C=C/c1ccc2c(c1)OCO2)N1CCCCC1", 8],
  ["Cc1ccccc1S", 8],
  ["C=C[C@](C)(O)CC[C@@H]1[C@@]2(C)CCCC(C)(C)[C@@H]2CC[C@@]1(C)O", 6],
  ["CC(=O)Sc1ccoc1C [S-(2-Methyl-3-furyl) ethanethioate]", 6],
  ["CCCCC/C=C/C=C/C=O [trans, trans-2,4-Decadienal]", 6],
  ["CCCC/C=C/C=C/C=O [trans, trans-2,4-Nonadienal]", 7.5],
  ["C=C(C)[C@@H]1CCC2=CC(=O)C[C@@H](C)[C@]2(C)C1", 6]
]}

* * *

Below, each of the molecules is paired with its reported pIC50 value.
studyTarget: OR5P3 (Homo sapiens)
Sequence (Q8WZ94 with tags, fused parts or gaps): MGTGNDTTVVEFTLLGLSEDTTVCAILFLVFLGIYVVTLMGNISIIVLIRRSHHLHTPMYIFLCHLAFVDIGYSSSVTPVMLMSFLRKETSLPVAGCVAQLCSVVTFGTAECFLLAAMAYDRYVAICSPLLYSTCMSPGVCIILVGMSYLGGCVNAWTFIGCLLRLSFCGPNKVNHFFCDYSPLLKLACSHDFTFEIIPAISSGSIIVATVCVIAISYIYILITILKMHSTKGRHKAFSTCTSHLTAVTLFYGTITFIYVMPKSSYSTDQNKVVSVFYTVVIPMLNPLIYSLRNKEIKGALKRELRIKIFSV
measurementProtocol: Screening for OR5P3 antagonist (luciferase assay, 2-heptanone as receptor-activating substance)
conditionSummary: inhibition of OR5P3 response to 2-heptanone (1000 μM); test substance 0.3-100 μM; HEK293T cells expressing OR5P3
pIC50: −log10 of the molar value.
measuredAttribute: pIC50

{"columns": ["molecule", "measuredValue"],
 "data": [
  ["c1coc(CSCc2ccco2)c1 [Difurfuryl sulfide]", 4.41],
  ["CC=Cc1ccc(OCc2ccccc2)c(OC)c1", 4.31],
  ["SCc1cccs1", 4.41],
  ["CC(=O)Sc1ccoc1C [S-(2-Methyl-3-furyl) ethanethioate]", 4.35],
  ["CCCCCCCCC(=O)NCc1ccc(O)c(OC)c1 [N-Vanillylnonanamide]", 5.70],
  ["Sc1cccs1", 4.12],
  ["CC=C(C=O)c1ccccc1", 4.19],
  ["S=C=NCc1ccccc1 [Benzyl isothiocyanate]", 4.72],
  ["CC(C)CC(O)Cc1ccccc1 (stereo not shown)", 4.17],
  ["C=C(C)[C@@H]1CCC2=CC(=O)C[C@@H](C)[C@]2(C)C1", 5.09],
  ["SCCc1ccccc1", 4.77],
  ["Cc1ccccc1S", 4.34],
  ["CCC=CC=CC=O", 4.11]
]}

* * *

measurementProtocol: Test Example 3: sensory evaluation of citral-derived degradation odor-masking effect
Type: in vivo
conditionSummary: score 0 to 10 (0 normal sample, 5 normal:degraded 1:1, 10 degraded sample); 100 ppm citral aqueous solution stored at 44° C. for two weeks; added ppm: decadienal 0.002, nonadienal 0.002, 2-methylbenzenethiol 0.165, S-(2-methyl-3-furyl) ethanethioate 0.120, piperine 6.667, nootkatone 10.000, sclareol 16.667; average of two experts
Method: A 100 ppm citral aqueous solution (stored under refrigeration after preparation) was used as a normal sample. This solution was stored at 44° C. for two weeks to generate a degraded odor derived from citral, and was used as a degraded sample. […] The citral-derived degradation odor intensity was scored as 0 to 10 on the basis of the following evaluation criteria. […] On the basis of the citral-derived degradation odor intensity, the citral-derived degradation odor-masking effect was evaluated. […]
measuredAttribute: Evaluation score (citral-derived degradation odor intensity)

{"columns": ["compound", "measuredValue"],
 "data": [
  ["Cc1ccccc1S", 8],
  ["C=C(C)[C@@H]1CCC2=CC(=O)C[C@@H](C)[C@]2(C)C1", 5.5],
  ["C=C[C@](C)(O)CC[C@@H]1[C@@]2(C)CCCC(C)(C)[C@@H]2CC[C@@]1(C)O", 5.5],
  ["CCCCC/C=C/C=C/C=O [trans, trans-2,4-Decadienal]", 5],
  ["CC(=O)Sc1ccoc1C [S-(2-Methyl-3-furyl) ethanethioate]", 6],
  ["O=C(/C=C/C=C/c1ccc2c(c1)OCO2)N1CCCCC1", 6],
  ["CCCC/C=C/C=C/C=O [trans, trans-2,4-Nonadienal]", 7]
]}

These data points were gathered from patent US20240385174A1.
